# Test system: MDA-MB-435
# method notes: NCI tumour cell line growth inhibition, 48 h
Active and inactive are the calls of the source. Rule as the data show it: active = GI50 up to about 1.1 µM and inactive = higher.
# reported GI50; entries follow

Previously resolved entries follow.
compound: O=C1c2cc(Cl)ccc2N=C(NC2CCCC2)C2CSCN12 (stereo not given)
experimental target: MDA-MB-435
quantity kind: GI50
result: > 100 µM (inactive)
//
compound: Cc1ccc(NC(=O)c2cc(S(=O)(=O)Nc3nc4cccnc4[nH]3)c(SSc3cc(Cl)c(C(=O)Nc4ccc(C)cc4)cc3S(=O)(=O)Nc3nc4cccnc4[nH]3)cc2Cl)cc1
experimental target: MDA-MB-435
quantity kind: GI50
result: > 100 µM (inactive)
//
compound: O=C(N/S(=N/S(=O)(=O)c1ccc(Br)cc1)C(Cl)(Cl)Cl)c1ccccc1 (stereo not given)
experimental target: MDA-MB-435
quantity kind: GI50
result: > 100 µM (inactive)

Would you kindly share the measured GI50 for CCN(CCO)CC1CCCC2CCCCC21 (stereo not given) ?
> 100 µM (inactive)
